- Experimental System: Dickkopf-related protein 1 (Homo sapiens) (UniProt O94907)
- Sequence (O94907 whole entry, looked up): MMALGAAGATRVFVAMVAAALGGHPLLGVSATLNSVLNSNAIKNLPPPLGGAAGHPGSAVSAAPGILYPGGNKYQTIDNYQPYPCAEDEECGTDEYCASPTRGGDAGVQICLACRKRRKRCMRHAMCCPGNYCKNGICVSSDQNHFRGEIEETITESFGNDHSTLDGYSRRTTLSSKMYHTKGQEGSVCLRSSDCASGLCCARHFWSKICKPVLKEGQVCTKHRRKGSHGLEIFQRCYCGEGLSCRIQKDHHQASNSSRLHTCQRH
- Procedure Details: DKK1 binders on small-molecule microarrays, primary screen, biochemical, small-molecule microarray, 635 nm fluorescence scan (AID 1106);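 further: score merges emission near 667 nm with signal to noise over three replicate slides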
- Assay Setup: DKK1 binding, higher = more signal
Attribute: composite z-score
Experimental Endpoint: composite z-score

[[record]]
compound = "CO[C@H]1COC(=O)CCC[C@@H](C)[C@H](OC)COC(=O)[C@@H]2CCCN2C(=O)CC=C[C@@H]1C"
result_value = 1.16

[[record]]
compound = "COc1ccc(O[C@H]2C=C[C@@H](c3ccccc3)O[C@@H]2CON=C(C)CCC(=O)OC[C@H]2O[C@H](c3ccccc3)C=C[C@@H]2Oc2ccc(OC)cc2)cc1"
result_value = -0.591

[[record]]
compound = "CCOC(=O)[C@H](CC(C)C)NC(=O)CCC1CC(OC(=O)NCc2ccc3c(c2)OCO3)CC2(CCCC(COC(=O)NCC(c3ccccc3)c3ccccc3)O2)O1 (stereo not given in full)"
result_value = 0.0925

[[record]]
compound = "CC(C)(C)N1C(=O)[C@H]2[C@H]3[C@H](O)[C@H](O)CC(=NO[C@@H]4O[C@H](CO)[C@@H](O)[C@H](O)[C@H]4O)[C@H]3CC[C@H]2C1=O"
result_value = 0.639

[[record]]
compound = "CC(C)=CCCC(C)=CCON=C1C[C@@H](O)[C@@H](O)[C@@H]2[C@@H]3C(=O)N(C(C)(C)C)C(=O)[C@@H]3CC[C@@H]12"
result_value = 0.18

[[record]]
compound = "CO[C@H]1COC(=O)CC=C[C@@H](C)[C@H](NS(=O)(=O)c2ccc(C)cc2)COC(=O)CCC[C@@H]1C"
result_value = 1.53

[[record]]
compound = "CSCC[C@@H]1NC(=O)CC=C[C@@H](C)COC(=O)[C@@H](C)COC1=O"
result_value = -0.18

[[record]]
compound = "CC(C)CON=C1[C@H]2CCn3c(=O)n(Cc4cc5c(cc4Cl)OCO5)c(=O)n3[C@H]2[C@H](O)[C@@H]2O[C@H]12"
result_value = 0.484

[[record]]
compound = "O=C1C[C@@H](O)[C@@H](O)[C@@H]2[C@@H]3C(=O)N(c4cccc(Oc5ccccc5)c4)C(=O)[C@@H]3CC[C@H]12"
result_value = 0.846

[[record]]
compound = "C[n+]1ccc(-c2ccc(CO)cc2)cc1"
result_value = 0.953

[[record]]
compound = "CCOC(=O)CCN1C(=O)[C@H]2[C@H]3[C@H](O)[C@H](O)CC(=NNC(=O)OCc4ccccc4)[C@@H]3CC[C@H]2C1=O"
result_value = 0.516

[[record]]
compound = "CCOC(=O)[C@H](CC(C)C)NC(=O)CCC1CC(OC(=O)NCc2cccc3ccccc23)CC2(CCCC(COC(=O)NCCOC)O2)O1 (stereo not given in full)"
result_value = 0.358

[[record]]
compound = "COc1cccc([C@H]2Oc3ccc(OC)cc3C(=NO[C@@H](C)c3cn([C@H](CO)Cc4ccccc4)nn3)[C@@H]2O)c1"
result_value = 0.113

[[record]]
compound = "C#CCCCON=C1C[C@@H](O)[C@@H](O)[C@@H]2[C@@H]3C(=O)N(CCC(=O)OCC)C(=O)[C@@H]3CC[C@H]12"
result_value = 0.389

[[record]]
compound = "COC(=O)[C@@H]1CC[C@H](C)[C@@H](c2ccc(C)cc2)N1C(=O)c1ccc(C=NO[C@@H](C)c2cn([C@H](CO)Cc3ccccc3)nn2)cc1"
result_value = 1.22

